Target: Factor V light chain (UniProt P12259 P12259:1574-2224)
Sequence (P12259 1574-2224, one chain of several): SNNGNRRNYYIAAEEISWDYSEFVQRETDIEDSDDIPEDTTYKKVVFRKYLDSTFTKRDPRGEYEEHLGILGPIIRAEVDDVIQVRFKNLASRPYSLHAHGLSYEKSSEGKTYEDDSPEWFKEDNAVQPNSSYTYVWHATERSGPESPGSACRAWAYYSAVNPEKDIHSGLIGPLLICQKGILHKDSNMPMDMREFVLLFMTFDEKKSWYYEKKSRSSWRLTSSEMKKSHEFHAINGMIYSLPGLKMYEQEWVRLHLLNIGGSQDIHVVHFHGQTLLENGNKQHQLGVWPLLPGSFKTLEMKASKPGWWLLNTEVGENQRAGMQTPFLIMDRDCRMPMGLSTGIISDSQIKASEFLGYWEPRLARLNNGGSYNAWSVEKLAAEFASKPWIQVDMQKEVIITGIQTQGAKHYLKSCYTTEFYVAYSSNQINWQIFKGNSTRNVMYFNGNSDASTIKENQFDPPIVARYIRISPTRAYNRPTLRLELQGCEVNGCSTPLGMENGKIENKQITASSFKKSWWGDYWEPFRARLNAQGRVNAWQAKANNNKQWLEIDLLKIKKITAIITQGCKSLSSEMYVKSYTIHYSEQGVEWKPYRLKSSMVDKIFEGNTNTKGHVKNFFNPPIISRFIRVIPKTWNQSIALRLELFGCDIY
Experiment: SPR; three runs: 1.926, 1.504, 7.997; text ~5 nM; HBS 2 mM CaCl2, 25 C
Conditions: label: 5'-biotin

Binder: T18.3 biotinylated (ssRNA, 2'-F C and U; 5' biotin and PEG11 spacer) RNA: GGACUUGGAUAACCUCACCGCAAUGGCGGCUUGUCAGACGACUCGCUGAGGAUCCGAG
Kd / nM: 3.47
